targetUnderTest: purified liver bovine arginase (b-ARG I) (Bos taurus, UniProt Q2KJ64)
Construct: commercially-available purified bovine arginase (b-ARG I) instead of animal tissue; purchased MP Biomedicals; host or cells: bovine liver (enzyme purified from tissue)
Sequence (Q2KJ64 whole entry): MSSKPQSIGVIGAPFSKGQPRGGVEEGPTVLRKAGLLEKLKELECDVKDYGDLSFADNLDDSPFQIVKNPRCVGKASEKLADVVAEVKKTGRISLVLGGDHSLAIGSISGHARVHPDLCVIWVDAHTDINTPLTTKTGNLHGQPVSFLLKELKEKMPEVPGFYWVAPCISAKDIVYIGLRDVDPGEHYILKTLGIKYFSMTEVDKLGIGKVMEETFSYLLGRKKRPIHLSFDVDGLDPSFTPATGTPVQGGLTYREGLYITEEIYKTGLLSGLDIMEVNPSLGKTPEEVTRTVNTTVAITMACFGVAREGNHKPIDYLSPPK
testDescription: In vitro colorimetric microassay of arginase inhibition on purified bovine liver arginase;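 also: urea formed from L-arginine detected colorimetrically with alpha-isonitrosopropiophenone at 550 nm after 60 min at 37 °C, inhibition relative to solvent controls taken as 100% arginase activity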
Assay type: biochemical
conditions: 100 μM final concentration; three separate in-duplicate experiments; read-out: b-ARG I Inhibition (%) (100 μM)
measuredEndpoint: inhibition at 100 µM (%)

Solved entries:
O=C(/C=C/c1ccc(O)c(O)c1)Nc1ccc(O)cc1
59
O=C(/C=C/c1ccc(O)c(O)c1)NCCc1ccccc1
64
O=C(/C=C/c1ccc(O)cc1)NCCc1ccc(O)cc1
40

[a] O=C(/C=C/c1ccccc1)NCCc1ccccc1 [Compound 5, (E)-N-(2-Phenylethyl)cinnamide]
[b] COC(=O)[C@H](CS)NC(=O)/C=C/c1ccc(O)c(O)c1
Between the entries labeled a and b , whose measured inhibition at 100 µM is lower? API: response body contains the label of the selected item.
a
(a: 34%, b: 67%)
